system: RagB from W83, mature part, C-terminal His6-tag, expressed in E. coli (Porphyromonas gingivalis W83)
assay_explanation: MST
pKd: −log10 of the molar value.
readout_name: pKd

> print(dat)
                                     binder  readout.name  measured
1  KATAEALKKALEEAGAEVELK [P21 peptide (21 residues from the C-terminus of ribosomal protein L7)]           pKd      2.70
2     NIFKKNVGFKK [P4 peptide (unlabelled)]           pKd      2.70
